TESTED ON: hNEU2 (human cytosolic sialidase) (Homo sapiens, UniProt Q9Y3R4)
Construct: made in house
Sequence (Q9Y3R4 whole entry): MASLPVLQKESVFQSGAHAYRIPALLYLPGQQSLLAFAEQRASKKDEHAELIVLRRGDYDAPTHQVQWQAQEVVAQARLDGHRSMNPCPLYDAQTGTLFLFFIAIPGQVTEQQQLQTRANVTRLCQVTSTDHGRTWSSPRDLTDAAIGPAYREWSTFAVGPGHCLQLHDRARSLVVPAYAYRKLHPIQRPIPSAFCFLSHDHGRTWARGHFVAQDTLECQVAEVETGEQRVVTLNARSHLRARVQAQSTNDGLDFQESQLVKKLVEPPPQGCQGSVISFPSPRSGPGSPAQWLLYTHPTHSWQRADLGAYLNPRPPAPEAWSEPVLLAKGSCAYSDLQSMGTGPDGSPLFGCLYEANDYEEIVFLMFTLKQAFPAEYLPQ
TEST SUMMARY: Fluorescence-based inhibition assay (substrate Neu5Acα2-3GalβMU, β-galactosidase coupled)
Type: biochemical
CONDITION INFO: inhibitor 8.0 μM, substrate Neu5Acα2-3GalβMU 8.0 μM; Example 2, Table 2; read-out: Percentage inhibition against hNEU2
Measured inhibition at 8 µM accompanies every entry in the list below.
Respond numerically; units are % and should not be typed.

A selection of reference data follows.
| COMPOUND | UNIT ABBREVIATION | inhibition at 8 µM |
| --- | --- | --- |
| CC(=O)NC1C[C@](OC2C(O)[C@H](Oc3ccc([N+](=O)[O-])cc3)OC(CO)[C@@H]2O)(C(=O)O)OC([C@H](O)[C@H](O)CO)[C@@H]1NC(C)=O (some centres unmarked) | % | 0 |
| CC(=O)N[C@@H]1C(N=[N+]=[N-])C[C@](OC2C(O)[C@H](Oc3ccc([N+](=O)[O-])cc3)OC(CO)[C@@H]2O)(C(=O)O)OC1[C@H](O)[C@H](O)CO (some centres unmarked) | % | 0 |
| CC(=O)N[C@H]1[C@H]([C@H](O)[C@H](O)CO)OC(O)(C(=O)O)C[C@@H]1N (some centres unmarked) | % | 2.2 |
| CC(=O)N[C@@H]1C(N=[N+]=[N-])C[C@](OCC2O[C@@H](Oc3ccc([N+](=O)[O-])cc3)C(O)C(O)[C@H]2O)(C(=O)O)OC1[C@H](O)[C@H](O)CO (some centres unmarked) | % | 0 |
| CC(=O)NC1C[C@](OCC2O[C@@H](Oc3ccc([N+](=O)[O-])cc3)C(O)C(O)[C@H]2O)(C(=O)O)OC([C@H](O)[C@H](O)CO)[C@@H]1NC(C)=O (some centres unmarked) | % | 0 |

Query: Which value of inhibition at 8 µM has been reported for CC(=O)N[C@H]1[C@H]([C@H](O)[C@H](O)CO)O[C@@](O[C@H]2[C@@H](O)[C@@H](CO)O[C@@H](Oc3ccc([N+](=O)[O-])cc3)[C@@H]2O)(C(=O)O)C[C@@H]1OC(C)=O [Neu4,5Ac2α2-3GalβpNP, Neu4,5Acα2-3GalβpNP, reference compound] in the records?
Response: 0

Query: inhibition at 8 µM; subject: CC(=O)N[C@@H]1C(N)C[C@](OC2C(O)[C@H](Oc3ccc([N+](=O)[O-])cc3)OC(CO)[C@@H]2O)(C(=O)O)OC1[C@H](O)[C@H](O)CO (some centres unmarked)
Response: 0

Query: Given the compound CC(=O)N[C@@H]1C(O)C[C@](OC2C(O)[C@H](Oc3ccc([N+](=O)[O-])cc3)OC(CO)[C@@H]2O)(C(=O)O)OC1[C@H](O)[C@H](O)CO (some centres unmarked) [Neu5Acα2-3GalβpNP, reference compound] , what is its reported inhibition at 8 µM?
Response: 0
